- targetDesc: T1, rat GIT1 (647-770) (rat, UniProt Q9Z272 647-770)
- T1 construct: also called GIT1 FAH; GIT1 FAH domain; source: E. coli BL21, expressed as GST-fusion protein (pGex-4T1), purified as described previously (Schmalzigaug et al., 2007)
- T1 sequence (looked up): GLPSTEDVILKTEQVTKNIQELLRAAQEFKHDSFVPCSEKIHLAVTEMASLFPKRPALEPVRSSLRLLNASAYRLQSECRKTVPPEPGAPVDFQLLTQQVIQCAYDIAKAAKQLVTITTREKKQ
- method: fluorescence polarisation + MST; 'additional DA and MST experiments' with GIT1: GIT1 serially diluted (MST from 630 μM, standard capillaries, 25 °C), FITC-Ahx peptide 0.1 μM; 20 mM HEPES pH 7.5, 150 mM NaCl, 2 mM EDTA, 2 mM DTT, Tween-20
- particulars: both partners purified
pKd: −log10 of the molar value. Where no end group is shown, it is not given here. The star is where a group is joined. FITC = O=C1OC2(c3ccc(O)cc3Oc3cc(O)ccc32)c2ccc(NC(=S)*)cc21; Ahx = NCCCCCC(=O)O
measuredEndpoint: pKd

binder="{FITC-Ahx}-EDVLDELLQYLGVT (core motif 1680-1689; labelled form, used in direct anisotropy and MST; also called RGPA1; source: synthetic peptide, bought: GenScript) [RALGAPA1 LD motif peptide, FITC-Ahx-labelled]" assayvalue=~4.10

Measured values drawn from paper PMC7703752 for this set.
